System: rodent lifetime carcinogenesis bioassay, tumor incidence TD50
Assay: carcinogenic potency in animals, long-term in vivo studies, CPDB compilation (AID 1745844)
Conditions: mouse; strain B6C3F1; females; by gavage; site: abdominal cavity + liver + ovary + spleen + subcutaneous tissue; lesion: hemangiosarcoma + hemangioma; dosed 105 weeks; study length 107 weeks
Value Type: TD50

For the compound shown here, "Cc1ccc(N=C=O)cc1N=C=O" , give the reported TD50. 580 mg/kg/day

====

Test system: rodent lifetime carcinogenesis bioassay, tumor incidence TD50
Assay: carcinogenic potency in animals, long-term in vivo studies, CPDB compilation (AID 1745844)
Details: rat; strain Sprague-Dawley; females; inhaled; site: any site (literature study); lesion: several types; types named in the paper; dosed 71 weeks; study length 71 weeks
Value Type: TD50 (mg/kg/day)
Give the number; mg/kg/day is assumed, so skip it.

So what TD50 did "C=CCl" get with rodent lifetime carcinogenesis bioassay, tumor incidence TD50? 70.5

====

Tested on: rodent lifetime carcinogenesis bioassay, tumor incidence TD50
Assay: carcinogenic potency in animals, long-term in vivo studies, CPDB compilation (AID 1745844)
Conditions: rat; strain Wistar; females; in drinking water; site: mammary gland; lesion: malignant tumor; dosed 157 weeks; study length 157 weeks
Value Type: TD50 (mg/kg/day)
Numbers only here, please. The scale is mg/kg/day.

Any idea what TD50 was measured for "NN" ? 1.13

====

Tested on: rodent lifetime carcinogenesis bioassay, tumor incidence TD50
Experiment: carcinogenic potency in animals, long-term in vivo studies, CPDB compilation (AID 1745844)
Conditions: rat; strain F344/DuCrj; males; in feed; site: colon; lesion: several types; types named in the paper; dosed 67 weeks; study length 67 weeks
Value Type: TD50

Kindly state the measured TD50 obtained for "Cc1cccn2c1nc1ccc(N)nc12" with rodent lifetime carcinogenesis bioassay, tumor incidence TD50. 9.45 mg/kg/day

====

System: rodent lifetime carcinogenesis bioassay, tumor incidence TD50
Test: carcinogenic potency in animals, long-term in vivo studies, CPDB compilation (AID 1745844)
Settings: rat; strain Sprague-Dawley; females; in feed; site: urinary bladder; lesion: transitional-cell carcinoma; dosed 75 weeks; study length 75 weeks
Value Type: TD50

Query: TD50; subject: "COc1cc2c(cc1N)oc1ccccc12" 205 mg/kg/day

====

System: rodent lifetime carcinogenesis bioassay, tumor incidence TD50
Assay: carcinogenic potency in animals, long-term in vivo studies, CPDB compilation (AID 1745844)
Details: rat; strain Charles River CD (Sprague-Dawley); males; in feed; site: any site (literature study); lesion: several types; types named in the paper; dosed 104 weeks; study length 104 weeks
Active and inactive are the calls of the source. No rule for the calls is given here. Peptide text beside a SMILES is read from it.

>  <Molecule>
OC(Cn1cncn1)(Cn1cncn1)c1ccc(F)cc1F

>  <carcinogen call>
negative (inactive)

$$$$
>  <Molecule>
O=C1NS(=O)(=O)c2ccccc21

>  <carcinogen call>
negative (inactive)

$$$$
>  <Molecule>
CCc1cccc2c3c([nH]c12)C(CC)(CC(=O)O)OCC3 (centres undefined)

>  <carcinogen call>
negative (inactive)

$$$$
>  <Molecule>
COC(=O)[C@H](Cc1ccccc1)NC(=O)[C@@H](N)CC(=O)O (H-Asp-Phe-OMe)

>  <carcinogen call>
negative (inactive)

$$$$

====

System: rodent lifetime carcinogenesis bioassay, tumor incidence TD50
Experiment: carcinogenic potency in animals, long-term in vivo studies, CPDB compilation (AID 1745844)
Settings: rat; strain Fischer 344; females; by gavage; site: liver + mammary gland + pancreatic islets + subcutaneous tissue; lesion: neoplastic nodule + fibroadenoma + islet-cell adenoma + fibrosarcoma + fibroma; dosed 106 weeks; study length 108 weeks
Value Type: TD50
Respond with a number, then the unit of measure.

Lab note: need TD50 for "Cc1ccc(N=C=O)cc1N=C=O" on rodent lifetime carcinogenesis bioassay, tumor incidence TD50, anyone have it? 25.4 mg/kg/day

====

System: rodent lifetime carcinogenesis bioassay, tumor incidence TD50
Test: carcinogenic potency in animals, long-term in vivo studies, CPDB compilation (AID 1745844)
Conditions: mouse; strain B6C3F1; females; in feed; site: liver; lesion: hepatocellular carcinoma; dosed 38 weeks; study length 100 weeks
Value Type: TD50

What TD50 value was documented for this compound, "CNc1ccc(N(CCO)CCO)cc1[N+](=O)[O-]" ? 114 mg/kg/day

====

Tested on: rodent lifetime carcinogenesis bioassay, tumor incidence TD50
Test: carcinogenic potency in animals, long-term in vivo studies, CPDB compilation (AID 1745844)
Details: mouse; strain B6C3F1; females; i.p.; site: brain; lesion: olfactory neuroblastoma; dosed 52 weeks; study length 85 weeks
Value Type: TD50

Endpoint output: TD50 of "CNNCc1ccc(C(=O)NC(C)C)cc1" . Value? 6.34 mg/kg/day

====

Test system: rodent lifetime carcinogenesis bioassay, tumor incidence TD50
Experiment: carcinogenic potency in animals, long-term in vivo studies, CPDB compilation (AID 1745844)
Settings: monkey; strain Rhesus [Macaca mulatta]; both sexes; in feed; site: thyroid gland; lesion: lymphoma; dosed 1221 weeks; study length 1221 weeks
Value Type: TD50 (mg/kg/day)
Numbers only; they are read as mg/kg/day.

# value lookup — system rodent lifetime carcinogenesis bioassay, tumor incidence TD50, readout TD50, item "O=C1NS(=O)(=O)c2ccccc21" 43.3

====

Tested on: rodent lifetime carcinogenesis bioassay, tumor incidence TD50
Test: carcinogenic potency in animals, long-term in vivo studies, CPDB compilation (AID 1745844)
Conditions: mouse; strain B6C3F1; females; inhaled; site: any site (literature study); lesion: several types; types named in the paper; dosed 95 weeks; study length 95 weeks
Value Type: TD50 (mg/kg/day)
// units = mg/kg/day; emit number, no label

Return reported TD50; argument: "FC(F)=C(F)F" 48.4

====

Test system: rodent lifetime carcinogenesis bioassay, tumor incidence TD50
Assay: carcinogenic potency in animals, long-term in vivo studies, CPDB compilation (AID 1745844)
Conditions: rat; strain Wistar-random; females; inhaled; site: mammary gland; lesion: fibroadenoma; dosed 104 weeks; study length 104 weeks
Calls of active or inactive are those of the source. No rule for the calls is given here.
Value Type: TD50

GET /values?readout=TD50&item= "C=CC(=C)Cl" 55.1 mg/kg/day (inactive)

====

Test system: rodent lifetime carcinogenesis bioassay, tumor incidence TD50
Assay: carcinogenic potency in animals, long-term in vivo studies, CPDB compilation (AID 1745844)
Conditions: rat; strain Fischer 344; females; in feed; site: any site (literature study); lesion: several types; types named in the paper; dosed 104 weeks; study length 109 weeks
Activity calls are given as the source filed them. The rule behind the calls is not given here.
Value Type: TD50

# input molecule: "NCCCCCCCCCCC(=O)O" ; wanted: its TD50 1250 mg/kg/day (inactive)

====

Tested on: rodent lifetime carcinogenesis bioassay, tumor incidence TD50
Assay: carcinogenic potency in animals, long-term in vivo studies, CPDB compilation (AID 1745844)
Details: rat; strain Fischer 344; females; in drinking water; site: brain; lesion: astrocytoma; dosed 104 weeks; study length 104 weeks
Value Type: TD50 (mg/kg/day)
Provide only the numeric value, understood in mg/kg/day.

What value of TD50 has been recorded for this entry: "C=CC(N)=O" 38.8

====

System: rodent lifetime carcinogenesis bioassay, tumor incidence TD50
Assay: carcinogenic potency in animals, long-term in vivo studies, CPDB compilation (AID 1745844)
Conditions: rat; strain Alpk:APfSD; males; by gavage; site: stomach; lesion: several types; types named in the paper; dosed 52 weeks; study length 100 weeks
Value Type: TD50

Quick check: TD50 of "FCCl" ? 28.5 mg/kg/day

====

System: rodent lifetime carcinogenesis bioassay, tumor incidence TD50
Assay: carcinogenic potency in animals, long-term in vivo studies, CPDB compilation (AID 1745844)
Conditions: mouse; strain CDF1; males; in feed; site: lung; lesion: several types; types named in the paper; dosed 84 weeks; study length 84 weeks
Value Type: TD50 (mg/kg/day)
Write down the numeric answer in mg/kg/day and omit the unit.

Look up TD50 with rodent lifetime carcinogenesis bioassay, tumor incidence TD50 for this molecule: "Cc1cnc2ccc3c(nc(N)n3C)c2n1" 134

====

Tested on: rodent lifetime carcinogenesis bioassay, tumor incidence TD50
Experiment: carcinogenic potency in animals, long-term in vivo studies, CPDB compilation (AID 1745844)
Conditions: rat; strain F344/DuCrj; males; in feed; site: Zymbal's gland; lesion: several types; types named in the paper; dosed 61 weeks; study length 61 weeks
Value Type: TD50

GET /values?readout=TD50&item= "Cc1cnc2ccc3c(nc(N)n3C)c2n1" 2.72 mg/kg/day

====

System: rodent lifetime carcinogenesis bioassay, tumor incidence TD50
Test: carcinogenic potency in animals, long-term in vivo studies, CPDB compilation (AID 1745844)
Details: mouse; strain B6C3F1; males; by gavage; site: liver; lesion: hepatocellular adenoma + hepatocellular carcinoma; dosed 102 weeks; study length 103 weeks
Value Type: TD50 (mg/kg/day)
Respond with the bare value in mg/kg/day.

TD50 for "CC(C)=CCl" ? 48.8

====

Tested on: rodent lifetime carcinogenesis bioassay, tumor incidence TD50
Assay: carcinogenic potency in animals, long-term in vivo studies, CPDB compilation (AID 1745844)
Settings: rat; strain Sprague-Dawley; males; i.p.; site: peritoneum; lesion: fibrosarcoma + mesothelioma, NOS + mesothelioma, malignant + sarcoma, NOS; dosed 51 weeks; study length 80 weeks
Value Type: TD50

Tell me the measured TD50 of "COc1cc2c(c3c1c(=O)c1ccccc1n3C)C=CC(C)(C)O2" , please. 1.49 mg/kg/day
